Recorded values, source patent US20250326753A1.

Parameter: inhibition at 1 µM. Scope: all listed entries.
Biological target: LCK (Homo sapiens, UniProt P06239)
Construct: purchased Reaction Biology Europe GmbH
Sequence (P06239 whole entry): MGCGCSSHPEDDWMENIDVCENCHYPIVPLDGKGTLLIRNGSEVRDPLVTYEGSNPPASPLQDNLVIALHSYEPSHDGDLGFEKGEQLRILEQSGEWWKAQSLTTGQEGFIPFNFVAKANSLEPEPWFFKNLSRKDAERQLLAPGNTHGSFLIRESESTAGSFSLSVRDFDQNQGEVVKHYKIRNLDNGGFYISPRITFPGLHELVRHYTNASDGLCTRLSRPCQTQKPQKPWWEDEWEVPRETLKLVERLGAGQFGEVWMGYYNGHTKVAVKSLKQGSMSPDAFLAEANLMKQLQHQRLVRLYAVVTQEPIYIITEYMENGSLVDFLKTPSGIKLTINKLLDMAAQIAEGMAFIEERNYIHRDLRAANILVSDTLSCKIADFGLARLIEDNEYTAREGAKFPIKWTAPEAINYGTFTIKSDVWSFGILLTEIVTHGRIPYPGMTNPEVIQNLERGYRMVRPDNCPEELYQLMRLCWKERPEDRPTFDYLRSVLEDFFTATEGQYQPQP
Assay: PanQinase kinase panel: LCK
Format: biochemical
Details: read-out: INHIBITORY EFFECT @ 1 uM: LCK

Please indicate inhibition at 1 µM recorded for O=C(c1ccc(Oc2ccccc2)cc1Cl)c1c[nH]c2ncnc(N[C@@H]3CC[C@@H](CO)OC3)c12
90 to 100%

Using known records, supply inhibition at 1 µM for Cc1cccnc1[C@H]1CCC[C@@H](c2ncccc2C)N1CCN1CCN(C(=O)c2ccc(-c3cc4c(-c5cccc(NC(=O)c6ccccc6)c5C)ncnc4[nH]3)cc2)CC1
< 50%

// Input: COc1ccc(F)cc1C(=O)NCc1ccc(-c2nn([C@@H](C)C(F)(F)F)c(N)c2C(N)=O)cc1 . Output its inhibition at 1 µM only.
< 50%

Supply measured inhibition at 1 µM of C=CC(=O)N1CCC([C@@H]2CCNc3c(C(N)=O)c(-c4ccc(Oc5ccccc5)cc4)nn32)CC1 in your reply.
< 50%

====

Biological target: BTK (Bruton tyrosine kinase) (Homo sapiens)
Construct: GST or His (the text leaves open which); purchased Reaction Biology Europe GmbH Lot 012,11; host or cells: Sf9 insect cells or E. coli (not resolved)
Experiment: BTK screening assay (33PanQinase Activity Assay, radiometric)
Format: biochemical
Details: Inhibition of BTK, radiometric 33PanQinase Activity Assay, 3 μM ATP, 10 concentrations in singlicate, top 10 μM; read-out: 33PanQinase ® Radiometric IC50
PROPERTY LABEL: IC50

In the examples that follow, each entry is paired with its recorded IC50.
| COMPOUND | IC50 |
| --- | --- |
| Cc1cc(-c2ccnc(Nc3cnn(CCCN4[C@@H](c5ncccc5C)CCC[C@H]4c4ncccc4C)c3)n2)ccc1CNC(=O)N1CC(OC(F)(F)F)C1 [Compound I-57] | 0.001 to 0.1 µM |
| Cc1cc(-c2ncnc3[nH]c(C(=O)NCCCCN4[C@@H](c5ncccc5C)CCC[C@H]4c4ncccc4C)cc23)ccc1CNC(=O)c1cccc(F)c1 [Compound I-83] | 0.1 to 1 µM |
| Cc1cccnc1[C@H]1CCC[C@@H](c2ncccc2C)N1CCCCN(C)C(=O)c1cc2c(-c3ccc(CNC(=O)c4ccc(C(C)(C)C)cc4)cc3)ncnc2[nH]1 [Compound I-2] | 1 to 2.5 µM |
| Cc1cc(-c2ncnc3[nH]c(C(=O)NCCCN4[C@@H](c5ncccc5C)CCC[C@H]4c4ncccc4C)cc23)ccc1CNC(=O)c1cc(F)cc(F)c1 [Compound I-85] | 0.1 to 1 µM |

Indicate its recorded IC50; the compound in question is Cc1cccnc1[C@H]1CCC[C@@H](c2ncccc2C)N1CCNC1CN(C(=O)c2ccc(-c3cc4c(-c5cccc(NC(=O)c6ccc(C(F)(F)F)cc6)c5C)ncnc4[nH]3)cc2)C1 [Compound I-37]
0.1 to 1 µM

====

Biological target: MST1 (Homo sapiens)
Construct: purchased Reaction Biology Europe GmbH
Sequence (Q13043 whole entry): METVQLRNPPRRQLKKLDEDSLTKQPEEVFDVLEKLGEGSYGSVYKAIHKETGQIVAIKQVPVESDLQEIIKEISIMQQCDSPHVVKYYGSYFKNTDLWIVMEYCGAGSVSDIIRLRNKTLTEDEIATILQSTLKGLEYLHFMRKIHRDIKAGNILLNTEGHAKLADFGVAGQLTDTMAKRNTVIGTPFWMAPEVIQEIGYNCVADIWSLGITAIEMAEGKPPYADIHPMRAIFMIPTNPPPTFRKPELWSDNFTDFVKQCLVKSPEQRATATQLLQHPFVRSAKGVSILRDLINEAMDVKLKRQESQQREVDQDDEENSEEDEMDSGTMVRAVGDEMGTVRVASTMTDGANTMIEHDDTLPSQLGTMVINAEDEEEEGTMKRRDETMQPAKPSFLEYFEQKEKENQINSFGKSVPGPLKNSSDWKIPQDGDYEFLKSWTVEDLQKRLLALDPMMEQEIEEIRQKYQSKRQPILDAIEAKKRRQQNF
Assay: PanQinase kinase panel: MST1
Format: biochemical
Settings: read-out: INHIBITORY EFFECT @ 1 uM: MST1
PROPERTY LABEL: inhibition at 1 µM

Below: 3 compounds and their reported inhibition at 1 µM.
| COMPOUND | ASSAYED TARGET | inhibition at 1 µM |
| --- | --- | --- |
| Cc1cccnc1[C@H]1CCC[C@@H](c2ncccc2C)N1CCN1CCN(C(=O)c2ccc(-c3cc4c(-c5cccc(NC(=O)c6ccccc6)c5C)ncnc4[nH]3)cc2)CC1 [Compound I-10] | MST1 (Homo sapiens) | < 50% |
| COc1ccc(F)cc1C(=O)NCc1ccc(-c2nn([C@@H](C)C(F)(F)F)c(N)c2C(N)=O)cc1 [LOXO-305, pirtobrutinib] | MST1 (Homo sapiens) | < 50% |
| O=C(c1ccc(Oc2ccccc2)cc1Cl)c1c[nH]c2ncnc(N[C@@H]3CC[C@@H](CO)OC3)c12 [ARQ-531] | MST1 (Homo sapiens) | 70 to 89% |

// next entry
Fill in inhibition at 1 µM for record C=CC(=O)N1CCC([C@@H]2CCNc3c(C(N)=O)c(-c4ccc(Oc5ccccc5)cc4)nn32)CC1 [Zanubrutinib]
< 50%

====

Biological target: UniProt:Q06187
Experiment: BTK Kinase Enzyme System with ADP-Glo Kinase Assay
Details: 50 μM ATP
The reader will find reported IC50 values listed item by item below.

| SUBSTANCE SMILES | IC50 |
| --- | --- |
| Cc1cccnc1[C@H]1CCC[C@@H](c2ncccc2C)N1CCNC1CN(C(=O)c2ccc(-c3cc4c(-c5cccc(NC(=O)c6ccc(C(C)(C)C)cc6)c5C)ncnc4[nH]3)cc2)C1 | 1 to 100 nM |

Indicate the recorded IC50 value for this compound: Cc1cc(-c2ncnc3[nH]c(C(=O)NCCCCN4[C@@H](c5ncccc5C)CCC[C@H]4c4ncccc4C)cc23)ccc1CNC(=O)c1ccc(C(C)(C)C)cc1
1 to 100 nM

Return IC50 (reported value) for this compound: Cc1cccnc1[C@H]1CCC[C@@H](c2ncccc2C)N1CCCCN(C)C(=O)c1cc2c(-c3ccc(CNC(=O)c4ccc(C(C)(C)C)cc4)cc3)ncnc2[nH]1
1000 to 2500 nM

====

Target: CK1epsilon (Homo sapiens, UniProt P49674)
Construct: purchased Reaction Biology Europe GmbH
Sequence (P49674 whole entry): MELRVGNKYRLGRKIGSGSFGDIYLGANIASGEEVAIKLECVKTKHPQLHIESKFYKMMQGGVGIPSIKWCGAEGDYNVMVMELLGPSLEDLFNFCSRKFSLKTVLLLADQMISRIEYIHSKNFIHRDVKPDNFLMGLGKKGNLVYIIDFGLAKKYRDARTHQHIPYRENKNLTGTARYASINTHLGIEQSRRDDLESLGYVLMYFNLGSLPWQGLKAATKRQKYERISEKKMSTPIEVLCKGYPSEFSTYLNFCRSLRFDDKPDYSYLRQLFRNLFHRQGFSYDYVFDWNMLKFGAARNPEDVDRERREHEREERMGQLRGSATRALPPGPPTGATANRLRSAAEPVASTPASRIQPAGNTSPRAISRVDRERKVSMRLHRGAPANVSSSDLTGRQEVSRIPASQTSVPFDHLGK
Experiment: PanQinase kinase panel: CK1epsilon
Format: biochemical
Settings: read-out: INHIBITORY EFFECT @ 1 uM: CK1epsilon
PROPERTY LABEL: inhibition at 1 µM

Known results for compounds:
| COMPOUND | MEAS VALUE |
| --- | --- |
| C=CC(=O)N1CCC([C@@H]2CCNc3c(C(N)=O)c(-c4ccc(Oc5ccccc5)cc4)nn32)CC1 [Zanubrutinib] | < 50% |
| COc1ccc(F)cc1C(=O)NCc1ccc(-c2nn([C@@H](C)C(F)(F)F)c(N)c2C(N)=O)cc1 [LOXO-305, pirtobrutinib] | < 50% |
| O=C(c1ccc(Oc2ccccc2)cc1Cl)c1c[nH]c2ncnc(N[C@@H]3CC[C@@H](CO)OC3)c12 [ARQ-531] | 50 to 69% |

Consider now this further compound.
Let me know recorded inhibition at 1 µM for Cc1cccnc1[C@H]1CCC[C@@H](c2ncccc2C)N1CCN1CCN(C(=O)c2ccc(-c3cc4c(-c5cccc(NC(=O)c6ccccc6)c5C)ncnc4[nH]3)cc2)CC1 [Compound I-10] , thanks.
< 50%

====

Property: pIC50; scope: individual molecules
Target: BTK (Bruton tyrosine kinase) (Homo sapiens, UniProt Q06187)
Construct: GST or His (the text leaves open which); purchased Reaction Biology Europe GmbH Lot 012,11; host or cells: Sf9 insect cells or E. coli (not resolved)
Sequence (Q06187 whole entry): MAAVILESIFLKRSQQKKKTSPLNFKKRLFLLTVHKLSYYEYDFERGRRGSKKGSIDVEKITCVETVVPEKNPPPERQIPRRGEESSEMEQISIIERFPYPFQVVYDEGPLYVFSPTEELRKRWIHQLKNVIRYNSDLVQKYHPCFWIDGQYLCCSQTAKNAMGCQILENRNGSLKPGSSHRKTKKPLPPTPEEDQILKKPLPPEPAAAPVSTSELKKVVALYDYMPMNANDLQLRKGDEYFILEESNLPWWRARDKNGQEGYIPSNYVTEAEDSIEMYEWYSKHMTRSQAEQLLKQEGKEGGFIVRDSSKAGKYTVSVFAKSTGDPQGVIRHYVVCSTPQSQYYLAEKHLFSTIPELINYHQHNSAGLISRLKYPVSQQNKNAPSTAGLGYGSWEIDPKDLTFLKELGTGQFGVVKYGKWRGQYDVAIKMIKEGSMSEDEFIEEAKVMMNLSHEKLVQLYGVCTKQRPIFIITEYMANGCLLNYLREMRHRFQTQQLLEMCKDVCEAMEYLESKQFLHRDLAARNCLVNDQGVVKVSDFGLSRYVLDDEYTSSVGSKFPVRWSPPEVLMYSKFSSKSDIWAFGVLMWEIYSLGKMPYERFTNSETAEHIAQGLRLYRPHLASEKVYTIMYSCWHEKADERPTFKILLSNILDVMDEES
Experiment: BTK screening assay (33PanQinase Activity Assay, radiometric)
Format: biochemical
Details: Inhibition of BTK, radiometric 33PanQinase Activity Assay, 3 μM ATP, 10 concentrations in singlicate, top 10 μM; read-out: 33PanQinase ® Radiometric IC50
pIC50: −log10 of the molar value.

Worked examples, 3 molecules total:
| SUBSTANCE SMILES | pIC50 |
| --- | --- |
| Cc1ccc(Oc2ccc(C(=O)c3c[nH]c4ncnc(N[C@@H]5CC[C@@H](C(=O)NCCCCN6[C@@H](c7ncccc7C)CCC[C@H]6c6ncccc6C)OC5)c34)c(Cl)c2)cc1 | 7.00 to 9.00 |
| COC1CN(C(=O)NCc2ccc(-c3ccnc(Nc4cnn(CCN5[C@@H](c6ncccc6C)CCC[C@H]5c5ncccc5C)c4)n3)cc2C)C1 | 7.00 to 9.00 |
| Cc1cc(-c2ncnc3[nH]c(C(=O)NCCCN4[C@@H](c5ncccc5C)CCC[C@H]4c4ncccc4C)cc23)ccc1CNC(=O)c1cccc(C(C)C)c1 | 6.00 to 7.00 |

Kindly indicate its recorded pIC50. Item: Cc1cccnc1[C@H]1CCC[C@@H](c2ncccc2C)N1CCN1CCN(C(=O)c2ccc(-c3cc4c(-c5cccc(NC(=O)c6ccc(C(C)C)cc6)c5C)ncnc4[nH]3)cc2)CC1
7.00 to 9.00

Annotate the molecule Cc1cc(-c2ncnc3[nH]c(C(=O)NCCCCN4[C@@H](c5ncccc5C)CCC[C@H]4c4ncccc4C)cc23)ccc1CNC(=O)c1ccccc1 with its measured pIC50.
7.00 to 9.00

====

System: Ramos cell line
Test: Ramos cell line viability assay (CellTiter-Glo, 72 hr)
Assay type: cell-based
Settings: Homo sapiens, class, read-out: Ramos viability IC50
pIC50: −log10 of the molar value.
PROPERTY LABEL: pIC50

# annotated cases, reported pIC50 shown
| MOLECULE | pIC50 |
| --- | --- |
| Cc1cccnc1[C@H]1CCC[C@@H](c2ncccc2C)N1CCN1CCN(C(=O)c2ccc(-c3cc4c(-c5cccc(NC(=O)c6ccccc6)c5C)ncnc4[nH]3)cc2)CC1 [Compound I-10] | 5.40 to 5.70 |
| Cc1cccnc1[C@H]1CCC[C@@H](c2ncccc2C)N1CCNC1CN(C(=O)c2ccc(-c3cc4c(-c5cccc(NC(=O)c6ccccc6)c5C)ncnc4[nH]3)cc2)C1 [Compound I-9] | 5.40 to 5.70 |

For Cc1cc(-c2ncnc3[nH]c(C(=O)NCCCCN4[C@@H](c5ncccc5C)CCC[C@H]4c4ncccc4C)cc23)ccc1CNC(=O)c1ccc(C(C)(C)C)cc1 [Compound I-6] , write its pIC50.
5.70 to 5.82

Give reported pIC50 value for Cc1cccnc1[C@H]1CCC[C@@H](c2ncccc2C)N1CCN1CCN(C(=O)c2ccc(-c3cc4c(-c5cccc(NC(=O)c6ccc(C(C)(C)C)cc6)c5C)ncnc4[nH]3)cc2)CC1 [Compound I-7]
5.70 to 5.82
